- Tested on: SF-295 CNS
- protocol description: NCI-60 one-dose screen, 48 h
- condition details: 10 µM unless noted
Compounds without any hit were thinned out: in the full panel of roughly 83,000, 20% have a hit. Active and inactive are the calls of the source. Rule for the calls: active = growth percent below 10; inactive = the rest.
Choose one outcome from this list and give only that: true (1) = active, false (0) = inactive

Which outcome was entered for the compound `CCn1c(=O)c(C(=O)NCCCO)c(O)c2ccccc21` in this test?
false (0)

Which outcome was entered for the compound `CS(=O)(=O)c1ccc(C(=O)Nc2ccc(Cl)c(-c3ccccn3)c2)c(Cl)c1` in this test?
true (1)

Which outcome was entered for the compound `COC(=O)CSc1ccc(Cl)cc1` in this test?
false (0)

Which outcome was entered for the compound `CC1(C)CN(CCNc2nccc(-c3c(-c4cccc(O)c4)nc4sccn34)n2)S(=O)(=O)N1` in this test?
false (0)

---
Which outcome was entered for the compound `C[N+](C)(C)CCCCCCCCCC[N+](C)(C)C` in this test?
false (0)

Which outcome was entered for the compound `CCCCOc1nc2ccccc2cc1/C=C/c1cc(/C=C/c2cc3ccccc3nc2OCCCC)n(-c2ccccc2)n1` in this test?
false (0)

Which outcome was entered for the compound `O=C(Nc1cccc(C2=NCCN2)c1)c1ccc(N=Nc2ccc(C(=O)Nc3cccc(C4=NCCN4)c3)cc2)cc1` in this test?
false (0)

---

- Tested on: OVCAR-4 ovarian
- protocol description: NCI-60 one-dose screen, 48 h (100 = growth as untreated, 0 = no growth, -100 = all killed)
- condition details: 10 µM unless noted
Compounds without any hit were thinned out: in the full panel of roughly 83,000, 20% have a hit. Calls of active or inactive are those of the source. How the source made its calls: active means growth percent below 10; inactive means the rest.
Recorded growth by entry

Worked cases, growth given:
GET /values?readout=growth&item= `COC(=O)[C@@H](Cc1c[nH]c2ccccc12)NC(=O)/C=C/c1ccccc1`
63.1% (inactive)

GET /values?readout=growth&item= `COc1cc(/C=C\c2cc(/C=C\c3ccc(O)c(OC)c3)n(C(=O)Nc3ccc(C(F)(F)F)cc3)n2)ccc1O`
76.7% (inactive)

GET /values?readout=growth&item= `CCCCCCCCCCCCCCCCCC(=O)OCCCCCCCCCCCCC`
113% (inactive)

GET /values?readout=growth&item= `CCS(=O)(=O)Nc1cccc(Nc2c3cccc(C)c3nc3c(C)cccc23)c1OC`
83.5% (inactive)

---
GET /values?readout=growth&item= `Nc1c(C(=O)Nc2cccc(Cl)c2)sc2nc3c(cc12)C(=O)CCC3`
60.4% (inactive)

GET /values?readout=growth&item= CC1=CCC2C1CC=C(C)C(CC[C@H]1[C@@](C)(O)CCC3OC(C)(C)[C@H](OC(=O)c4ccccc4)CC[C@@]31C)C2(C)C (some centres not stated)
71.5% (inactive)

---

- Tested on: RXF 393 renal
- protocol description: NCI-60 one-dose screen, 48 h (100 = growth as untreated, 0 = no growth, -100 = all killed)
- condition details: 10 µM unless noted
The panel holds about 83,000 compounds, 20% with a hit somewhere; the sample as a whole holds those more often.
# growth binned as low: < 10%; medium: ≥ 10% and < 90%; high: ≥ 90%

In plain terms, what class is `O=C(Nc1cccc(-n2ccc3c(NC(=O)c4ccccc4)nccc32)c1)c1ccc(Cl)c(Cl)c1` ?
low

In plain terms, what class is CN1C(=O)N(C)C2C1NN=c1s/c(=C\c3ccc(C(F)(F)F)cc3)c(=O)n12 (stereo unspecified) ?
low

---
In plain terms, what class is COc1cc(C2CC(c3ccc(Cl)cc3)=NN2C(C)=O)ccc1Oc1ccnc2cc(Cl)ccc12 (stereo unspecified) ?
medium

In plain terms, what class is `CCNCCCn1c2c(c3ccc(Cl)cc3c1=O)C(=O)c1cc(OC)cnc1-2` ?
low

In plain terms, what class is `CC1(C)CC(=O)c2cc3c(N)c(C(=O)Nc4ccc(Cl)cc4)sc3nc2C1` ?
high

In plain terms, what class is COc1ccc(C(=O)N2N=C(c3ccc(F)cc3)CC2c2cn(-c3ccccc3)nc2-c2ccccc2)cc1 (stereo unspecified) ?
medium

In plain terms, what class is `CCCCCCCC/C=C/CCCCCCCC1=NC(C)(C)CN1c1ccccc1` ?
medium

In plain terms, what class is `N=C(N)c1ccc(-c2ccc(-c3cccs3)s2)cc1F` ?
low

In plain terms, what class is `C#CCNc1nc(NCCNC(=O)CCl)nc(N(C)CCCCc2ccccc2)n1` ?
high
